Assign SPOT peptide array binding signal intensity to each entry below.
Molecular target: ScSho1
Assay: SPOT peptide array binding signal intensity (averaged, normalized) (arbitrary units (background-subtracted, floor 0; scale differs between SH3 domains)); higher = stronger binding of the SH3 domain to the peptide
Give bare numbers.

Sample records with SPOT peptide array binding signal intensity:
According to the records, this binder `LPMNIQPDLPPRKIM` displays SPOT peptide array binding signal intensity of 682

According to the records, this binder `TKPTPPPKPSHLKPK` displays SPOT peptide array binding signal intensity of 1320

According to the records, this binder `VNFRRIPTGPDSPPT` displays SPOT peptide array binding signal intensity of 96.5

According to the records, this binder `ERPKRRAPPPVPKKP` displays SPOT peptide array binding signal intensity of 166

According to the records, this binder `KFIPSRPAPKPPSSA` displays SPOT peptide array binding signal intensity of 18

According to the records, this binder `VKPRQLFPIPLNKVD` displays SPOT peptide array binding signal intensity of 139

Consider the additional binder presented here.
According to the records, this binder `ALRRRLPVTRSKINW` displays SPOT peptide array binding signal intensity of 1460
